experiment: toxicity on mice (LD50); conditions: mouse, in vivo, ip, intra-peritoneal (i.p.), read-out: 50% lethal dose (LD50)
VALUE KIND: LD50 (mg/kg)
Give bare numbers, in mg/kg.

Ask: State, in one line, measured LD50 of COc1cccc2c1C(=O)c1c(O)c3c(c(O)c1C2=O)CC(O)(C(C)O)CC3OC1CC(N)C(O)C(C)O1 (stereo not shown)
Result: 6.5
